STUDY_CONDITIONS: 298.15 K; 101.33 kPa; Liquid; Sing-around technique in a fixed-path interferometer
± gives the expanded uncertainty stated by the source.
Reported speed of sound is given for each of the following compounds.
Please state the number and follow it with the unit.

q: Quick one: speed of sound for CO ?
a: 1103.4 ± 0.91 m/s

* * *

STUDY_CONDITIONS: 298.15 K; 101.33 kPa; Liquid; Vibrating tube method
Reported mass density is given for each of the following molecules.
Please respond with the number in kg/m3 and leave the unit unwritten.

INSERT INTO results (molecule, result_number) VALUES
  ('CCCCCCC', 679.51),
  ('CCCO', 799.58),
  ('CN1CCCC1=O', 1028.01);

q: Quick one: mass density for CCCCO ?
a: 805.72

q: Field entry: CCO
a: 785.22

q: Field entry: C1CCCCC1
a: 773.82

q: Field entry: CCC(=O)N(C)C [N,N-dimethylpropionamide]
a: 921.16

q: Field entry: CO
a: 786.66

* * *

Reported speed of sound is given for each of the following compounds.
STUDY_CONDITIONS: 298.15 K; 101.33 kPa; Liquid; Sing-around technique in a fixed-path interferometer
Please respond with the number in m/s and leave the unit unwritten.

The following compounds have reported results that may help.
INSERT INTO results (compound, readout_type, unit_spec, result_number) VALUES
  ('CCO [ethanol]', 'speed of sound', 'm/s', 1145.2),
  ('CCCCO [butan-1-ol]', 'speed of sound', 'm/s', 1240.5);

q: Quick one: speed of sound for CCCO [propan-1-ol] ?
a: 1206.7

q: Field entry: C1CCCCC1 [cyclohexane]
a: 1255

* * *

Reported speed of sound is given for each of the following compounds.
STUDY_CONDITIONS: 298.15 K; 101.33 kPa; Liquid; Sing-around technique in a fixed-path interferometer
Numbers after ± are expanded uncertainties.

The following compounds have reported results that may help.
INSERT INTO results (compound, readout_type, result) VALUES
  ('CCCCCCC', 'speed of sound', '1131.4 ± 0.92 m/s'),
  ('CN1CCCC1=O', 'speed of sound', '1545.2 ± 1.1 m/s');

Continue with the compound presented below.
q: Quick one: speed of sound for CCC(=O)N(C)C [N,N-dimethylpropionamide] ?
a: 1425.4 ± 1.2 m/s
